Tested on: hepG2 cells
Assay: CCK8 cell viability assay, hepG2
Assay type: cell-based, human
Conditions: Homo sapiens, HepG2, 48 h, hepG2, CCK8, read-out: half maximal inhibitory concentration (IC50), hepG2
Assay metric: IC50

What value of IC50 on hepG2 cells does C[C@@H]1CCO[C@H]2Cn3cc(C(=O)NCc4ccc(F)cc4F)c(=O)c(O)c3C(=O)N12 [DTG, Dolutegravir] have?
> 50 µM

----------
Test system: hepG2 cells
Assay: CCK8 cell viability assay, hepG2
Format: cell-based, human
Details: 20 μM, hepG2, CCK8, control taken as 100%
Assay metric: Cell Viability (100%), 20 μM, 48 h, hepG2
Return type: number; implicit unit %.

Compound: COc1c2n(cc(C(=O)Nc3cccc(-c4cn(Cc5ccccc5Br)nn4)c3)c1=O)CC1OCCC(C)N1C2=O (centres unmarked)
Units of measure: %
Val: 46.80
//
Compound: COc1c2n(cc(C(=O)Nc3cccc(-c4cn(-c5ccc(C(C)(C)C)cc5)nn4)c3)c1=O)CC1OCCC(C)N1C2=O (centres unmarked)
Units of measure: %
Val: 77.30
//
Compound: COc1c2n(cc(C(=O)Nc3cccc(-c4cn(-c5ccccc5Cl)nn4)c3)c1=O)CC1OCCC(C)N1C2=O (centres unmarked)
Units of measure: %
Val: 38.75

Data request, read-out Cell Viability (100%), 20 μM, 48 h, hepG2, for COc1c2n(cc(C(=O)Nc3cccc(-c4cn(Cc5ccccc5C(F)(F)F)nn4)c3)c1=O)CC1OCCC(C)N1C2=O (centres unmarked)
66.45

Name the reported Cell Viability (100%), 20 μM, 48 h, hepG2 value associated with the compound COc1c2n(cc(C(=O)Nc3cccc(-c4cn(-c5ccccc5I)nn4)c3)c1=O)CC1OCCC(C)N1C2=O (centres unmarked)
54.35

----------
System: Huh7 cells
Assay: CCK8 cell viability assay, Huh7
Format: cell-based, human
Details: Homo sapiens, Huh-7; 48 h, Huh7, CCK8; read-out: half maximal inhibitory concentration (IC50), Huh7
pIC50: −log10 of the molar value.
Assay metric: pIC50

Fill in: pIC50 of C[C@@H]1CCO[C@H]2Cn3cc(C(=O)NCc4ccc(F)cc4F)c(=O)c(O)c3C(=O)N12 is ___
< 4.30

----------
System: Huh7 cells
Experiment: CCK8 cell viability assay, Huh7
Format: cell-based, human
Conditions: 20 μM, Huh7, CCK8, control taken as 100%
Classification field: condition met = Cell Viability (100%), 20 μM, 48 h, Huh7 at or over 50%; condition not met = Cell Viability (100%), 20 μM, 48 h, Huh7 under 50%.

Reference set (8 entries):
Molecule: COc1c2n(cc(C(=O)Nc3cccc(-c4cn(Cc5ccccc5C)nn4)c3)c1=O)CC1OCCC(C)N1C2=O (stereo not drawn) [Compound 6g]
Classification: condition not met

Molecule: COc1c2n(cc(C(=O)Nc3cccc(-c4cn(Cc5cccc(Br)c5)nn4)c3)c1=O)CC1OCCC(C)N1C2=O (stereo not drawn) [Compound 6e]
Classification: condition not met

Molecule: COc1c2n(cc(C(=O)Nc3cccc(-c4cn(-c5ccc(C(C)(C)C)cc5)nn4)c3)c1=O)CC1OCCC(C)N1C2=O (stereo not drawn) [Compound 5n]
Classification: condition met

Molecule: COc1c2n(cc(C(=O)Nc3cccc(-c4cn(Cc5ccccc5)nn4)c3)c1=O)CC1OCCC(C)N1C2=O (stereo not drawn) [Compound 6b]
Classification: condition met

Molecule: COc1c2n(cc(C(=O)Nc3cccc(-c4cn(-c5cccc(C(F)(F)F)c5)nn4)c3)c1=O)CC1OCCC(C)N1C2=O (stereo not drawn) [Compound 5p]
Classification: condition not met

Molecule: COc1ccccc1-n1cc(-c2cccc(NC(=O)c3cn4c(c(OC)c3=O)C(=O)N3C(C)CCOC3C4)c2)nn1 (stereo not drawn) [Compound 5t]
Classification: condition not met

Molecule: COc1c2n(cc(C(=O)Nc3cccc(-c4cn(-c5ccc(F)cc5)nn4)c3)c1=O)CC1OCCC(C)N1C2=O (stereo not drawn) [Compound 5g]
Classification: condition met

Molecule: COc1c2n(cc(C(=O)Nc3cccc(-c4cn(-c5ccccc5C(F)(F)F)nn4)c3)c1=O)CC1OCCC(C)N1C2=O (stereo not drawn) [Compound 5c]
Classification: condition not met

Check if Cell Viability (100%), 20 μM, 48 h, Huh7 >= 50% (inclusive). Item: COc1cccc(Cn2cc(-c3cccc(NC(=O)c4cn5c(c(OC)c4=O)C(=O)N4C(C)CCOC4C5)c3)nn2)c1 (stereo not drawn) [Compound 6d]
condition met

----------
System: hepG2 cells
Assay: CCK8 cell viability assay, hepG2
Format: cell-based, human
Settings: 20 μM, hepG2, CCK8, control taken as 100%
Entries and their Cell Viability (100%), 20 μM, 48 h, hepG2 values follow.
Respond numerically; units are % and should not be typed.

Compound: COc1cccc(-n2cc(-c3cccc(NC(=O)c4cn5c(c(OC)c4=O)C(=O)N4C(C)CCOC4C5)c3)nn2)c1 (stereo not drawn)
Units of measure: %
Val: 33.91

For CCc1ccc(-n2cc(-c3cccc(NC(=O)c4cn5c(c(OC)c4=O)C(=O)N4C(C)CCOC4C5)c3)nn2)cc1 (stereo not drawn) , what is its reported Cell Viability (100%), 20 μM, 48 h, hepG2?
77.30

Item under review: COc1c2n(cc(C(=O)Nc3cccc(-c4cn(-c5cc(C(F)(F)F)ccc5C(F)(F)F)nn4)c3)c1=O)CC1OCCC(C)N1C2=O (stereo not drawn) . Reported Cell Viability (100%), 20 μM, 48 h, hepG2?
38.49

// lookup Cell Viability (100%), 20 μM, 48 h, hepG2 for COc1c2n(cc(C(=O)Nc3cccc(-c4cn(-c5ccccc5Br)nn4)c3)c1=O)CC1OCCC(C)N1C2=O (stereo not drawn)
47.16

Please report the recorded Cell Viability (100%), 20 μM, 48 h, hepG2 for COc1cc([N+](=O)[O-])ccc1-n1cc(-c2cccc(NC(=O)c3cn4c(c(OC)c3=O)C(=O)N3C(C)CCOC3C4)c2)nn1 (stereo not drawn) .
93.94

Tell me the measured Cell Viability (100%), 20 μM, 48 h, hepG2 of CCOc1ccc(-n2cc(-c3cccc(NC(=O)c4cn5c(c(OC)c4=O)C(=O)N4C(C)CCOC4C5)c3)nn2)cc1 (stereo not drawn) , please.
90.41

Cell Viability (100%), 20 μM, 48 h, hepG2 for COc1c2n(cc(C(=O)Nc3cccc(-c4cn(-c5ccc(F)cc5)nn4)c3)c1=O)CC1OCCC(C)N1C2=O (stereo not drawn) ?
105.19

Please report the recorded Cell Viability (100%), 20 μM, 48 h, hepG2 for COc1c2n(cc(C(=O)Nc3cccc(-c4cn(Cc5ccccc5C)nn4)c3)c1=O)CC1OCCC(C)N1C2=O (stereo not drawn) .
52.95

# get_value(readout='Cell Viability (100%), 20 μM, 48 h, hepG2', item= COc1c2n(cc(C(=O)Nc3cccc(-c4cn(Cc5cc(Br)cc(Br)c5)nn4)c3)c1=O)CC1OCCC(C)N1C2=O (stereo not drawn) )
66.48

----------
System: Huh7 cells
Test: CCK8 cell viability assay, Huh7
Type: cell-based, human
Conditions: 20 μM, Huh7, CCK8, control taken as 100%
Assay metric: Cell Viability (100%), 20 μM, 48 h, Huh7
# output: bare number, implied unit %

Compound: COc1c2n(cc(C(=O)Nc3cccc(-c4cn(Cc5ccccc5C(F)(F)F)nn4)c3)c1=O)CC1OCCC(C)N1C2=O (stereo not drawn)
Units of measure: %
Cell Viability (100%), 20 μM, 48 h, Huh7: 50.37
--
Compound: CCc1ccccc1-n1cc(-c2cccc(NC(=O)c3cn4c(c(OC)c3=O)C(=O)N3C(C)CCOC3C4)c2)nn1 (stereo not drawn)
Units of measure: %
Cell Viability (100%), 20 μM, 48 h, Huh7: 48.55

Param readout = Cell Viability (100%), 20 μM, 48 h, Huh7; param system = Huh7 cells; param query = COc1c2n(cc(C(=O)Nc3cccc(-c4cn(-c5ccccc5I)nn4)c3)c1=O)CC1OCCC(C)N1C2=O (stereo not drawn) ; response: value
49.87

meta.source: paper PMC11052077
